test-summary: self-splicing fitness, log relative to wild type (ln ratio); higher = more splicing; Tetrahymena group I intron in knt gene, E. coli kanamycin selection, DiMSum; sequences stand for … in CUCUCU…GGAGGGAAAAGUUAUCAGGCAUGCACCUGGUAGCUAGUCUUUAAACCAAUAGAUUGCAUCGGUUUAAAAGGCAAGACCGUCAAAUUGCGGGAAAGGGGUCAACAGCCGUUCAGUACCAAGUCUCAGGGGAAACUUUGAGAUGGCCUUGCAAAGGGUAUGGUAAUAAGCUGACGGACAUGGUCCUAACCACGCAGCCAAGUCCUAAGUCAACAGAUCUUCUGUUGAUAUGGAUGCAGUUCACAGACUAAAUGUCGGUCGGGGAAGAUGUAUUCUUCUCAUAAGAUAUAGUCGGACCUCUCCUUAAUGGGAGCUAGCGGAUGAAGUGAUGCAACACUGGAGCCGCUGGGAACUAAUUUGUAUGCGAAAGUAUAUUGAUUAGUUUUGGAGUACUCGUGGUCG;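 note: selection with 25 µg/mL kanamycin versus none on LB agar overnight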
conditions-used: 37 °C
Kindly note that classification relies on self-splicing fitness (ln) with these boundaries: LOW = under -2, MEDIUM = from -2 up to -1, HIGH = -1 and over

Request: Which class holds UGACAGCAAUAUUACGUUCC ?
Response: HIGH

Request: Looking at CACUAGCAAUAUUACGCAUG , which class would you pick?
Response: MEDIUM

Request: Category lookup for the sequence UAGUAGCAAUAUUACGGGCU
Response: LOW

Request: Which of the defined bands does the recorded self-splicing fitness (ln) of CCGUAGCAAUAUUACGGCGA sit within?
Response: LOW

Request: # bin lookup: classify CAAGAGCAAUAUUACGCCCU by its self-splicing fitness (ln)
Response: LOW

Request: Any idea which band GAUAAGCAAUAUUACGAGUG is in?
Response: HIGH

Request: Which self-splicing fitness (ln) category applies to CACGAGCAAUAUUACGGUUA here?
Response: LOW

Request: Band for ACUUAGCAAUAUUACGAGAU ?
Response: LOW

Request: In plain terms, what class is ACCUAGCAAUAUUACGACAC ?
Response: HIGH

Request: Textbook exercise: identify the category of the sequence given here, AAUAAGCAAUAUUACGUGUC , according to its measured value.
Response: HIGH

Request: Quick check: band for CAAGAGCAAUAUUACGUGUU
Response: LOW

Request: Assign a category based on measured self-splicing fitness (ln) for AGCUAGCAAUAUUACGACGG and give only the class name.
Response: MEDIUM

Request: Determine which band this sequence sits in: AUCUAGCAAUAUUACGUCGC
Response: MEDIUM

Request: Field: class (self-splicing fitness (ln)) — entry: UCUGAGCAAUAUUACGUCAA
Response: LOW

Request: Class (by measured self-splicing fitness (ln)) for ACUGAGCAAUAUUACGGACC
Response: MEDIUM

Request: Hey, which category is UCGGAGCAAUAUUACGAUUA in, do you know?
Response: HIGH

Request: Consider ACGAAGCAAUAUUACGAGUA . To which self-splicing fitness (ln) class does it belong?
Response: LOW

Request: Which self-splicing fitness (ln) band matches UUUUAGCAAUAUUACGAUGC ?
Response: LOW

Request: Into which category would you place UCUUAGCAAUAUUACGUGGA ?
Response: LOW

Request: Please let me know in which category the item CAUCAGCAAUAUUACGCUCU belongs.
Response: MEDIUM

Request: Assign a bin to AGAAAGCAAUAUUACGGGGU
Response: LOW

Request: // bin(item) where item = AUAAAGCAAUAUUACGACCC
Response: HIGH

Request: Hey, which category is AUCUAGCAAUAUUACGCGGU in, do you know?
Response: LOW

Request: Which self-splicing fitness (ln) category applies to GGUAAGCAAUAUUACGUGCA here?
Response: HIGH

Request: Hey, which category is CUAUAGCAAUAUUACGGUAG in, do you know?
Response: LOW

Request: Lab note: which band did UCAAAGCAAUAUUACGGGGU land in?
Response: LOW

Request: Which class does CCAAAGCAAUAUUACGGACA fall in?
Response: LOW

Request: Which band does UCCAAGCAAUAUUACGGGCA fall in?
Response: HIGH

Request: Returns: class label. Input: UAUUAGCAAUAUUACGGCAA
Response: HIGH

Request: Which category fits this record: UAGCAGCAAUAUUACGCAGA
Response: MEDIUM

Request: Band for ACCUAGCAAUAUUACGAUAU ?
Response: HIGH

Request: Category of GUUUAGCAAUAUUACGCUUC :
Response: MEDIUM

Request: Tag the class for CCAGAGCAAUAUUACGAUAC
Response: MEDIUM

Request: Band assignment needed for UCUCAGCAAUAUUACGUUAC please.
Response: MEDIUM

Request: Please classify: GCCUAGCAAUAUUACGAGCC
Response: MEDIUM

Request: Band assignment needed for GUAAAGCAAUAUUACGGUCG please.
Response: HIGH

Request: Determine which band this sequence sits in: UGUGAGCAAUAUUACGUAAA
Response: MEDIUM

Request: Field: class (self-splicing fitness (ln)) — entry: GUCGAGCAAUAUUACGUUCG
Response: MEDIUM

Request: Dear colleague, I would appreciate it if you could identify the bin for UCCCAGCAAUAUUACGCGCC and reply at your convenience.
Response: MEDIUM

Request: # classify by self-splicing fitness (ln) band: UAGAAGCAAUAUUACGCGGU
Response: LOW

Request: Lab note: which band did UUUUAGCAAUAUUACGGUCC land in?
Response: MEDIUM

Request: Each sequence maps to one class by self-splicing fitness (ln). Which class for GACAAGCAAUAUUACGCUGU ?
Response: MEDIUM

Request: Could you place CUUUAGCAAUAUUACGGAAU in its proper category? Many thanks.
Response: MEDIUM

Request: Band for the recorded self-splicing fitness (ln) of GGCUAGCAAUAUUACGCACC ?
Response: MEDIUM

Request: Exercise: read the entry AAGAAGCAAUAUUACGGAGU and state which class it falls under.
Response: LOW

Request: Category of CACUAGCAAUAUUACGGAUA , please.
Response: LOW

Request: Band for the recorded self-splicing fitness (ln) of AUGAAGCAAUAUUACGACGC ?
Response: HIGH

Request: Quick check: band for AAGUAGCAAUAUUACGCAGC
Response: LOW

Request: Note: place this sequence into its band. Item: CCCAAGCAAUAUUACGUCCA
Response: LOW

Request: Which band does AUGAAGCAAUAUUACGCUCC fall in?
Response: HIGH

Request: Band for the recorded self-splicing fitness (ln) of CCCUAGCAAUAUUACGUGUA ?
Response: LOW

Request: Record ACAGAGCAAUAUUACGAAGG — which class?
Response: LOW

Request: Pick a category. Item: UGUGAGCAAUAUUACGUGAG
Response: MEDIUM

Request: Looking at CAAUAGCAAUAUUACGGUGU , which class would you pick?
Response: LOW

Request: Category of UACGAGCAAUAUUACGAGAC , please.
Response: LOW

Request: Which self-splicing fitness (ln) category applies to UCAGAGCAAUAUUACGGUAG here?
Response: LOW

Request: Record UAUUAGCAAUAUUACGGCUC — which class?
Response: HIGH

Request: Field: class (self-splicing fitness (ln)) — entry: ACUAAGCAAUAUUACGCCAA
Response: LOW

Request: Lab note: which band did UAAGAGCAAUAUUACGUUGC land in?
Response: LOW

Request: Kindly state the category for this sequence: ACUUAGCAAUAUUACGUGAU
Response: MEDIUM

Request: Entry CGUGAGCAAUAUUACGCGCU belongs to which category?
Response: MEDIUM

Request: GET /class?item= CUAAAGCAAUAUUACGGUUG
Response: HIGH

Request: Any idea which band AAGCAGCAAUAUUACGCGCU is in?
Response: MEDIUM

Request: // bin(item) where item = AGGUAGCAAUAUUACGCGAA
Response: HIGH

Request: Entry GCAGAGCAAUAUUACGAUUA belongs to which category?
Response: HIGH

Request: Consider AGUGAGCAAUAUUACGAGUU . To which self-splicing fitness (ln) class does it belong?
Response: MEDIUM

---

Assignment: determine reported self-splicing fitness (ln) for the given sequences.
test-summary: self-splicing fitness, log relative to wild type (ln ratio); higher = more splicing; Tetrahymena group I intron in knt gene, E. coli kanamycin selection, DiMSum; sequences stand for … in CUCUCU…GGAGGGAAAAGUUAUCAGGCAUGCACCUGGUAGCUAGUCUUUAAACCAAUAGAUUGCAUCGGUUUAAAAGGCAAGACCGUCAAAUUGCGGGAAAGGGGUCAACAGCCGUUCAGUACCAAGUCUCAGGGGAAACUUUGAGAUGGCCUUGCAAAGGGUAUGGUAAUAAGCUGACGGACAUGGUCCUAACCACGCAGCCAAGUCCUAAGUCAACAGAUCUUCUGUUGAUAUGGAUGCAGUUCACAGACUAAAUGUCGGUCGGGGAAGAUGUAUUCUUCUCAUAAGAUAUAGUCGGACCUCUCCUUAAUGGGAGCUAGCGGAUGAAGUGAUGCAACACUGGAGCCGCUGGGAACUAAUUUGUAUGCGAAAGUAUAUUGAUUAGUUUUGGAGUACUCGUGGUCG
conditions-used: 37 °C
Keep it simple and answer with nothing but the number.

Request: If you can, please state the reported self-splicing fitness (ln) value of CUAUAGCAAUAUUACGCUUA .
Response: -2.34

Request: Any idea what its self-splicing fitness (ln) is? The sequence is CGGAAGCAAUAUUACGACAC
Response: -1.66

Request: Value lookup for self-splicing fitness (ln); key = UGUGAGCAAUAUUACGCCAA
Response: -0.355

Request: Quick check: self-splicing fitness (ln) of GACUAGCAAUAUUACGUGGA ?
Response: -1.07

Request: Given the sequence GGUCAGCAAUAUUACGAAUU , what is its reported self-splicing fitness (ln)?
Response: 0.599

Request: # lookup: self-splicing fitness (ln) of CACCAGCAAUAUUACGCAUA
Response: -1.27

Request: What measured self-splicing fitness (ln) goes with GUCCAGCAAUAUUACGGGGA ?
Response: -1.37

Request: # input sequence: CACGAGCAAUAUUACGUGUU ; wanted: its self-splicing fitness (ln)
Response: -2.26

Request: Consider the sequence GCACAGCAAUAUUACGCGCU and give its measured self-splicing fitness (ln).
Response: -1.1

Request: Requested field: self-splicing fitness (ln). Item: UCCGAGCAAUAUUACGCCGA
Response: -0.047

Request: Any idea what self-splicing fitness (ln) was measured for CCCAAGCAAUAUUACGGUGA ?
Response: -1.16

Request: Would you kindly share the measured self-splicing fitness (ln) for AGCUAGCAAUAUUACGUCUC ?
Response: -2.86

Request: Given the entry UACGAGCAAUAUUACGCCCG , report its measured self-splicing fitness (ln).
Response: -2.02

Request: I'd like to know its self-splicing fitness (ln). The sequence in question is CGAUAGCAAUAUUACGCCCU
Response: 0.695

Request: GET /values?readout=self-splicing fitness (ln)&item= CGAUAGCAAUAUUACGUUCU
Response: -0.384

Request: Fill in: self-splicing fitness (ln) of AACCAGCAAUAUUACGGCCC is ___
Response: 0.0337
